- TARGET_OF_ASSAY: recombinant human NaV1.8 stably transfected HEK cells (Homo sapiens, UniProt Q9Y5Y9)
- Construct: expressed in transfected cells; host or cells: HEK cells, stably transfected
- Sequence (Q9Y5Y9 whole entry): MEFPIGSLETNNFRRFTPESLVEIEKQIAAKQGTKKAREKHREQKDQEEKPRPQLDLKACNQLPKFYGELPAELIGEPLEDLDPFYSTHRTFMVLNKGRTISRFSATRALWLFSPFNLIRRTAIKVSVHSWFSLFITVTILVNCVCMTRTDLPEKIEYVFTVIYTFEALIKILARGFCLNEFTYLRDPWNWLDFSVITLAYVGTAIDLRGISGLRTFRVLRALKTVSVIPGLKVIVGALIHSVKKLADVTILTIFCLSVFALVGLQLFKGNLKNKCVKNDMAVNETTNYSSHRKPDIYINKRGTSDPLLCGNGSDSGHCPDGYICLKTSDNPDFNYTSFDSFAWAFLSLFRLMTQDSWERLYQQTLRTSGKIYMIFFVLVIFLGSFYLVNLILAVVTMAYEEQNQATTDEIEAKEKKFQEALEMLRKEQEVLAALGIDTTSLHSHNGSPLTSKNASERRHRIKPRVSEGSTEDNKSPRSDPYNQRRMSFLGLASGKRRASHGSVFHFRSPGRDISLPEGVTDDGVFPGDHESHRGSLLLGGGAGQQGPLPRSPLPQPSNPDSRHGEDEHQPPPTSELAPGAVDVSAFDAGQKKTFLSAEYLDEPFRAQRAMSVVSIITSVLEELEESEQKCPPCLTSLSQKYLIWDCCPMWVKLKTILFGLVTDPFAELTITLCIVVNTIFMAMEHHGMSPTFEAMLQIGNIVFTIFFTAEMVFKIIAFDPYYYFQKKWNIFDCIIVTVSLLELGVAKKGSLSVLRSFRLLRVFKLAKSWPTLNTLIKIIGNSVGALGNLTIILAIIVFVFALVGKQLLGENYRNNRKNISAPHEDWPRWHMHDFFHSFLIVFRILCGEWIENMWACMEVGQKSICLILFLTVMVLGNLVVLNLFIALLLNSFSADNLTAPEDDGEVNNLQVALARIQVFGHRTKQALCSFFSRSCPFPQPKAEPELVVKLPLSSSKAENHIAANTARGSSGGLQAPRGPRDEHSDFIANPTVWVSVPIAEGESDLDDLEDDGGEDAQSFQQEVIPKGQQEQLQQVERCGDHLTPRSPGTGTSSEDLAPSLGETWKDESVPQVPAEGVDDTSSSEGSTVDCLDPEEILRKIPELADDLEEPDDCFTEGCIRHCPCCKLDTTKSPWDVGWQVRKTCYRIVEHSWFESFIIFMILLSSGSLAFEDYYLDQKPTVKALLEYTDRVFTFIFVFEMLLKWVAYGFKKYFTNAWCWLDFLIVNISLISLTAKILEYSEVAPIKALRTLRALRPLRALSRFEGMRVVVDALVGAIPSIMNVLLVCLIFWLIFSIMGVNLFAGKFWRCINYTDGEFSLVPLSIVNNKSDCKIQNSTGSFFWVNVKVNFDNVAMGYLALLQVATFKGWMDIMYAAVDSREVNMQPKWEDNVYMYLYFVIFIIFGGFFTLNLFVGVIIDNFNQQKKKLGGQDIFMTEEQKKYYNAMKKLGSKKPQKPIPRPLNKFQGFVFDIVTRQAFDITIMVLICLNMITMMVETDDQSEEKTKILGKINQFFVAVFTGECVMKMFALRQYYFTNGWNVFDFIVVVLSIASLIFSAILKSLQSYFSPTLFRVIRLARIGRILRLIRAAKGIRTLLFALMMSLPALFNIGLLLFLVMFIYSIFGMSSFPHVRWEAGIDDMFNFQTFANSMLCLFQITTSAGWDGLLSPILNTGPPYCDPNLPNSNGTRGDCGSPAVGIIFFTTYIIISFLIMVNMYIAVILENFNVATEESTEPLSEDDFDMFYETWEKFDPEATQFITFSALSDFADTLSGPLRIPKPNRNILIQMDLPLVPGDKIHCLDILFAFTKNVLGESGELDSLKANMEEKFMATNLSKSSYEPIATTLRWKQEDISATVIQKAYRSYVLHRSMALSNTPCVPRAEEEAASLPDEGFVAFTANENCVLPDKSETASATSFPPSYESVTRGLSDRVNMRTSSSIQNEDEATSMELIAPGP
- ASSAY_REMARKS: Compound profiling on NaV1.8, human NaV1.8 cell line, SyncroPatch384PE automated patch clamp assay (Example 102, first set of compounds, Table 16)
- Type: cell-based
- CONDITION_PARAMETERS: resting state block (P1 measurement), human NaV1.8 HEK cells, Table 16 (first set of compounds), read-out: P1IC50
Below, each entry is listed with its recorded IC50.

COc1cc(C#N)ccc1Oc1nnc(-c2ccc(C#N)cc2)c(C)c1C(=O)Nc1ccc[n+]([O-])c1 [Compound 1527] : 20 to 40 nM
Cc1c(C(F)(F)F)nnc(Oc2ccc(OC(C)C)c(F)c2F)c1C(=O)Nc1cccc(C(N)=O)c1 [Compound 1409] : ≤ 20 nM
Cc1cc(F)ccc1Oc1nnc(C(F)(F)F)c(-c2cnn(C)c2)c1C(=O)Nc1cccc([S@@](C)(=N)=O)c1 [Compound 1521] : 200 to 500 nM
Cc1c(C(F)(F)F)nnc(Oc2ccc(OC3CCC3)c(F)c2F)c1C(=O)Nc1cccc(S(C)(=N)=O)c1 (single isomer, unassigned) [Compound 1493] : ≤ 20 nM
COc1cc(C#N)ccc1Oc1nnc(-c2ccn(C)n2)c(C)c1C(=O)Nc1cccc(S(C)(=N)=O)c1 (centres unmarked) [Compound 1448] : 200 to 500 nM
NC(=O)c1cccc(NC(=O)c2cc(C(F)(F)F)cnc2OC23CC(C(F)(F)F)(C2)C3)c1 [Compound 1634] : 200 to 500 nM
Cc1nn(C)c(C)c1Oc1ncc(C(F)(F)F)cc1C(=O)Nc1cccc(S(C)(=O)=O)c1 [Compound 1611] : 200 to 500 nM
COc1cc(C#N)ccc1Oc1nnc(C(F)(F)F)c(C)c1C(=O)Nc1cccc(C(=O)NC2CCCC2C#N)c1 (centres unmarked) [Compound 1445] : 200 to 500 nM
Cc1cc(F)ccc1Oc1nnc(C(F)(F)F)c(NC2CNC2)c1C(=O)Nc1cccc([S@@](C)(=N)=O)c1 [Compound 1523] : 200 to 500 nM
Cc1cc(F)ccc1Oc1nncc(C)c1C(=O)Nc1cccc(S(C)(=N)=O)c1 (centres unmarked) [Compound 1553] : 200 to 500 nM

Using the record for CS(=O)(=O)c1cccc(NC(=O)c2cc(C(F)(F)F)cnc2Oc2cncc3ccccc23)c1 [Compound 1581] , report its IC50. 200 to 500 nM

// query: COc1cc(C#N)ccc1Oc1nnc(C(F)(F)F)c(C)c1C(=O)Nc1cccc(C(=O)NCCO)c1 [Compound 1441] 200 to 500 nM

What do we get for COc1c(Oc2nnc3c(c2C(=O)Nc2cccc(C(N)=O)c2)CCC3)ccc(F)c1F [Compound 1417] ? 200 to 500 nM

Now the molecule COc1cc(C#N)ccc1Oc1nnc(-c2ncco2)c(C)c1C(=O)Nc1cccc(S(C)(=N)=O)c1 (centres unmarked) [Compound 1462, formic acid] 200 to 500 nM

---

- TARGET_OF_ASSAY: recombinant human NaV1.8 stably transfected HEK cells (Homo sapiens, UniProt Q9Y5Y9)
- Construct: expressed in transfected cells; host or cells: HEK cells, stably transfected
- ASSAY_REMARKS: Compound profiling on NaV1.8, human NaV1.8 cell line, SyncroPatch384PE automated patch clamp assay (Example 102, first set of compounds, Table 16)
- Assay type: cell-based
- CONDITION_PARAMETERS: resting state block (P1 measurement), human NaV1.8 HEK cells, Table 16 (first set of compounds), read-out: P1IC50
- Experimental: Compound Profiling on NaV1.8—Human NaV1.8 Cell Line—SyncroPatch384PE Assay Compounds were tested on recombinant human NaV1.8 stably transfected HEK cells using the SyncroPatch384PE system, an automated patch clamp device. […] Compounds were tested in triplicate in 0.1% DMSO and 0.030% Pluronic Acid. […] Compounds were then applied by the SynchroPatch into each well and the current was recorded for five minutes in EC, followed by application of tetracaine to achieve full block at the end of the experiment. […]
pIC50: −log10 of the molar value.
VALUE_TYPE: pIC50

# example entries with known answers
Cc1ccc(Oc2ncc(C(F)(F)F)cc2C(=O)Nc2cccc(S(C)(=N)=O)c2)c(OC(F)F)n1 (stereo not shown) [Compound 1690] : ≥ 7.70
COc1cc(C#N)ccc1Oc1nnc(C(F)(F)F)c(C)c1C(=O)Nc1cccc([S@](C)(=N)=O)c1 (single isomer, unassigned) [Compound 1480] : ≥ 7.70

Could you tell me which pIC50 is on file for COc1cc(C#N)ccc1Oc1ncc(C2=CCOCC2)cc1C(=O)Nc1cccc(S(C)(=N)=O)c1 (stereo not shown) [Compound 1726] ? 6.30 to 6.70

Proceed to Cc1cc(F)ccc1Oc1ncc(C(F)(F)F)c(C)c1C(=O)Nc1cccc(S(C)(=N)=O)c1 (stereo not shown) [Compound 1557] ≥ 7.70

Repeat for the following compound: Cc1c(C(F)(F)F)nnc(Oc2ccc(OC(F)(F)F)cc2F)c1C(=O)Nc1cccc(S(C)(=O)=O)c1 [Compound 1467] ≥ 7.70

Input CS(=O)(=O)c1cccc(NC(=O)c2cc(C(F)(F)F)cnc2Oc2cc(OC(F)(F)F)ccc2F)c1 [Compound 1658] 6.30 to 6.70

Also Cc1c(C(F)(F)F)nnc(Oc2ccc(OC3CCC3)c(F)c2F)c1C(=O)Nc1cccc(S(C)(=N)=O)c1 (stereo not shown) [Compound 1492] ? ≥ 7.70
